assay: in vitro
CC50 by entry:

{"molecule": "CC(=O)n1c(C(=O)N2CCC(C(=O)N(C)Cc3ccccc3)CC2)cc2ccccc21 [28e]", "meas.value": "> 50 µM"}
{"molecule": "CN(C)C(=O)C1CCN(C(=O)c2cc3ccccc3n2Cc2ccc(Cl)cc2)CC1 [27v]", "meas.value": "> 100 µM"}

QUERY: Form field: reported CC50 of Cn1cnc(CNC(=O)C2CCN(C(=O)c3cc4ccccc4n3Cc3ccc(Cl)cc3)CC2)c1 [27f]
RESULT: > 50 µM

QUERY: Form field: reported CC50 of O=C(NCCc1ccncc1)C1CCN(C(=O)c2nccn2Cc2ccc(Cl)cc2)CC1 [29b]
RESULT: > 50 µM

QUERY: Form field: reported CC50 of O=C(c1cc2ccccc2n1Cc1ccc(Cl)cc1)N1CCC(C(=O)N2CCOCC2)CC1 [27x]
RESULT: > 100 µM

====

experiment: in vitro
measurement.type: CC50

Known results for molecules:
{"molecule": "C[C@@H](NC(=O)C1CCN(C(=O)c2cc3ccccc3n2Cc2ccc(Cl)cc2)CC1)c1ccccc1", "meas.value": "> 100 µM"}
{"molecule": "COc1cccc(CCNC(=O)C2CCN(C(=O)c3cc4ccccc4n3Cc3ccc(Cl)cc3)CC2)c1 [27p]", "meas.value": "> 100 µM"}

QUERY: Form field: reported CC50 of Cn1c(C(=O)N2CCC(C(=O)NCCc3ccncc3)CC2)cc2ccccc21 [29e]
RESULT: > 50 µM

QUERY: Form field: reported CC50 of CN(Cc1ccccc1)C(=O)C1CCN(C(=O)c2cc3ccccc3n2Cc2ccc(C#N)cc2)CC1 [28c]
RESULT: > 100 µM

====

assay: in vitro; conditions: PAMPA, pH 7.4
Papp by entry:
The reply should contain only the number, in ×10⁻⁶ cm/s.

{"molecule": "O=C(NCc1ccncc1)C1CCN(C(=O)c2cc3ccccc3n2Cc2ccc(Cl)cc2)CC1", "reading.unit": "×10⁻⁶ cm/s", "Papp": 69.2}
{"molecule": "C[C@@H](NC(=O)C1CCN(C(=O)c2cc3ccccc3n2Cc2ccc(Cl)cc2)CC1)c1ccccc1", "reading.unit": "×10⁻⁶ cm/s", "Papp": 0.302}
{"molecule": "O=C(NCCc1ccncc1)C1CCN(C(=O)c2nc3ccccc3n2Cc2ccc(Cl)cc2)CC1 [29c]", "reading.unit": "×10⁻⁶ cm/s", "Papp": 31.6}

QUERY: Form field: reported Papp of O=C(NCCc1ccncc1)C1CCN(C(=O)c2nccn2Cc2ccc(Cl)cc2)CC1 [29b]
RESULT: 8.71

QUERY: Form field: reported Papp of CN(C)C(=O)C1CCN(C(=O)c2cc3ccccc3n2Cc2ccc(Cl)cc2)CC1 [27v]
RESULT: 64.6

QUERY: Form field: reported Papp of C[C@@H](NC(=O)C1CCN(C(=O)c2cc3ccccc3n2Cc2ccc(Cl)cc2)CC1)c1ccncc1 [27b]
RESULT: 95.5

QUERY: Form field: reported Papp of CC(=O)n1c(C(=O)N2CCC(C(=O)N(C)Cc3ccccc3)CC2)cc2ccccc21 [28e]
RESULT: 9.77

QUERY: Form field: reported Papp of CN(Cc1ccccc1)C(=O)C1CCN(C(=O)c2cc3ccccc3n2Cc2ccc(C#N)cc2)CC1 [28c]
RESULT: 53.7
